Reference source for all entries: patent US20210246218A1

We begin with a simple list: items and their reported kon.
- STUDY TARGET: T1, CD137 protein (UniProt Q07011 24-186, limits assumed)
- T1 construct: also called CD137 antigen; CD137 receptor
- T1 sequence (Q07011 24-186 limits assumed): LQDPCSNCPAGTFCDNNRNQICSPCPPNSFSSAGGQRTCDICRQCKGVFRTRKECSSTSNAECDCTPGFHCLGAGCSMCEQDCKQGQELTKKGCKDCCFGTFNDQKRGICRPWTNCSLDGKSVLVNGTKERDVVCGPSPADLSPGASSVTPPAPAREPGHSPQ
- TEST PROTOCOL: BLI (Octet Red 96), antibody on anti-human Fc sensors, CD137 protein in solution, 1:1 model
Report the value in M⁻¹ s⁻¹ with no unit label.

# count of solved cases: 6
BINDER	kon / M⁻¹ s⁻¹
reference antibody 371 (murine/human chimeric) (antibody, V domains shown) VH: QVQLQQSGAELVRPGASVTLSCKASGYTFAGFEMHWIKQTPVHGLGWIGAIDPKTGGTDYNQKFKDKALLTADKSSNTAYMELRSLTSEDSAVYYCTRDLGYFDVWGTGTTVTVSS VL: DIQMTQTTSSLSASLGDRVTISCRASQDIRSNLNWYQQKPDGTVKLLIYYTSRLHSGVPSRFSGSGSGTDYSLTISNLEQEDIATYFCQQSEKLPRTFGGGTKLEIRR	280000
humanized anti-CD137 antibody clone 3717 (IgG4 S228P/kappa) (antibody, V domains shown) VH: QVQLVQSGAEVVKPGASVKLSCKASGYTFAGFEMHWIRQAPGQGLGWIGAIDPKTGGTDYNQKFKDRATLTADTSISTAYMELSRLRSDDTAVYYCTRDLGYFDVWGQGTLVTVSS VL: DIQMTQSPSSLSASVGDRVTITCRASQDIRSNLNWYQQKPGKAPKLLIYYTSRLHSGVPSRFSGSGSGTDFTLTISSLQPEDFATYYCQQSEKLPRTFGGGTKVEIRR	150000
humanized anti-CD137 antibody clone 3719 (IgG4 S228P/kappa) (antibody, V domains shown) VH: QVQLVQSGAEVVKPGASVKLSCKASGYTFAGFEMHWIRQAPGQGLGWIGAIDPKTGGTDYNQKFKDRATLTADTSISTAYMELSRLRSDDTAVYYCTRDLGYFDVWGQGTLVTVSS VL: DIQMTQSPSSLSASVGDRVTITCRASQDIRSNLNWYQQKPGGAVKLLIYYTSRLHSGVPSRFSGSGSGTDYTLTISSLQPEDFATYFCQQSEKLPRTFGGGTKLEIRR	310000
humanized anti-CD137 antibody clone 3712 (IgG4 S228P/kappa) (antibody, V domains shown) VH: QVQLVQSGAEVKKPGASVKVSCKASGYTFAGFEMHWVRQAPGQGLEWMGAIDPKTGGTDYNQKFKDRVTMTRDTSISTAYMELSRLRSDDTAVYYCARDLGYFDVWGQGTLVTVSS VL: DIQMTQSPSSLSASVGDRVTITCRASQDIRSNLNWYQQKPGGAVKLLIYYTSRLHSGVPSRFSGSGSGTDYTLTISSLQPEDFATYFCQQSEKLPRTFGGGTKVEIRR	310000
humanized anti-CD137 antibody clone 3716 (IgG4 S228P/kappa) (antibody, V domains shown) VH: QVQLVQSGAEVVKPGASVKVSCKASGYTFAGFEMHWVRQAPGQGLGWMGAIDPKTGGTDYNQKFKDRVTMTADTSISTAYMELSRLRSDDTAVYYCTRDLGYFDVWGQGTLVTVSS VL: DIQMTQSPSSLSASVGDRVTITCRASQDIRSNLNWYQQKPGGAVKLLIYYTSRLHSGVPSRFSGSGSGTDYTLTISSLQPEDFATYFCQQSEKLPRTFGGGTKLEIRR	320000
humanized anti-CD137 antibody clone 3715 (IgG4 S228P/kappa) (antibody, V domains shown) VH: QVQLVQSGAEVVKPGASVKVSCKASGYTFAGFEMHWVRQAPGQGLGWMGAIDPKTGGTDYNQKFKDRVTMTADTSISTAYMELSRLRSDDTAVYYCTRDLGYFDVWGQGTLVTVSS VL: DIQMTQSPSSLSASVGDRVTITCRASQDIRSNLNWYQQKPGGAVKLLIYYTSRLHSGVPSRFSGSGSGTDYTLTISSLQPEDFATYFCQQSEKLPRTFGGGTKVEIRR	310000

Consider now this further binder.
Query: Please give the measured kon for this binder: humanized anti-CD137 antibody clone 3713 (IgG4 S228P/kappa) (antibody, V domains shown) VH: QVQLVQSGAEVKKPGASVKVSCKASGYTFAGFEMHWVRQAPGQGLEWMGAIDPKTGGTDYNQKFKDRVTMTRDTSISTAYMELSRLRSDDTAVYYCARDLGYFDVWGQGTLVTVSS VL: DIQMTQSPSSLSASVGDRVTITCRASQDIRSNLNWYQQKPGGAVKLLIYYTSRLHSGVPSRFSGSGSGTDYTLTISSLQPEDFATYFCQQSEKLPRTFGGGTKLEIRR
Result: 290000
